Values compiled from ChEMBL document CHEMBL1201862.

test system: Malme-3M; assay: NCI tumour cell line growth inhibition, 48 h
Calls of active or inactive are those of the source. No stated cut-off is given here; in the data, active = GI50 up to about 1.1 µM and inactive = higher.
Response enum: active, inactive

Cn1c(=O)n2n(c1=O)[C@@H](c1ccccc1)[C@H]2c1ccccc1    inactive
CCN1C(=O)CS/C1=N\NC(=O)CSc1nc2ccccc2c(=O)n1CC    inactive

Query: For `CN1C/C(=C\c2ccccc2)C2=NN(C(N)=S)[C@H](c3ccccc3)[C@@H]2C1` , which call appears in the assay record?
Response: inactive

Query: Then what about the molecule `O=[N+]([O-])C(=C(Sc1ccccc1)Sc1ccccc1)C(Cl)=C(Cl)Cl` ?
Response: active

Query: Then what about the molecule `N#Cc1nnn(-c2ccccc2)c1O` ?
Response: inactive

====

test system: SN12C; assay: NCI tumour cell line growth inhibition, 48 h
Calls of active or inactive are those of the source. Cut-off read from the data, not from the text of the source: active = GI50 up to about 1.1 µM and inactive = higher.
What GI50 was measured for each of the following?

Batch lookup, GI50 per entry.
1. CCc1c(Cc2cc(C)cc(C)c2)n2c(nc1=O)SCC2CBr (stereo not drawn)
2. COc1ccc(/C=N/N=C(\N)NO)c(Cl)c1O
3. N#CC1(C#N)NC(c2cccs2)C(C#N)(C#N)NC1c1cccs1 (stereo not drawn)
4. COc1cc(/C=C2\C[C@H]3[C@@H]4CCc5cc(OCCN6CCCC6)ccc5[C@H]4CC[C@]3(C)C2=O)cc(OC)c1OC

Response:
["> 50 µM (inactive)", "27.4 µM (inactive)", "43.2 µM (inactive)", "1.72 µM (inactive)"]

====

system: LOX IMVI; assay: NCI tumour cell line growth inhibition, 48 h
The source made the active and inactive calls. No stated cut-off is given here; in the data, active = GI50 up to about 1.1 µM and inactive = higher.
Response enum: Y for active, N for inactive

Below are worked cases with known answers.
CC(=O)OC1CC2OC(Cc3ccccc32)O1 (stereo not given)    N
CC1=C(C(=O)Nc2cccc3c2C(=O)NC3=O)CC(C(=O)Nc2cccc3c2C(=O)NC3=O)=C(C)N1    N
Cc1ccccc1NC(=O)/C(=N\NC(N)=S)C(C#N)c1ccccc1 (stereo not given)    N
CC1(C)[C@@H](Cn2cnc3c(Cl)nc(N)nc32)CC[C@@]1(C)CO    N
Cc1ccc(/C=C2\CNC/C(=C\c3ccc(C)cc3)C2=O)cc1    Y

Query: For `COc1cc([C@@H]2c3cc4c(cc3[C@@H](Nc3ccccc3C(=O)c3ccccc3)[C@H]3COC(=O)[C@H]23)OCO4)cc(OC)c1OC` , which call appears in the assay record?
Response: Y

Query: Then what about the compound `CCCCC/C(=N\c1[nH]nnc1C(N)=O)OCC` ?
Response: N

Query: Then what about the compound `CCN1C(=O)CS/C1=N\NC(=O)CSc1nc2ccccc2c(=O)n1CC` ?
Response: N

Query: Then what about the compound `Cc1ccc(Sc2ccc(C)cc2[N+](=O)[O-])c([N+](=O)[O-])c1` ?
Response: N

Query: Then what about the compound `COc1ccc2c(c1OC)OC[C@@H](C1=CC(=O)C=C(O)C1=O)C2` ?
Response: N

Query: Then what about the compound `Cc1ccc(S(=O)(=O)N2CCN(CCO)CCN(S(=O)(=O)c3ccc(C)cc3)CCN(CCO)CC2)cc1` ?
Response: N

Query: Then what about the compound O=C(CCSC(CC(=O)c1ccc(Cl)cc1)c1ccc(Cl)cc1)Nc1ccc(Cl)cc1 (stereo not given) ?
Response: N

Query: Then what about the compound `Cc1cc(=O)oc2cc(OC(=O)Nc3ccc(Cl)c(Cl)c3)ccc12` ?
Response: N
